Answer each item with its documented OD450 at 2.67 nM.
Assayed system: biotinylated labeled human GPC3 protein (produced in-house) (human, UniProt P51654 25-559, limits assumed, biotinylated (Dojindo, Cat. No. LK03); sites not stated)
Protocol details: ELISA, biotinylated human GPC3 protein
Answers are plain numbers, in OD450.

hAb006LH3L1 (antibody, human IgG1, V domains shown, Humanized F3.38.7; VH H3 + VL L1; expressed as human IgG1) VH: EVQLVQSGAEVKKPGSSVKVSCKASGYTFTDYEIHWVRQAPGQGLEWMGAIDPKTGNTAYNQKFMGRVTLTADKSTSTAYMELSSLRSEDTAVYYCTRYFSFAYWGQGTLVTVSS VL: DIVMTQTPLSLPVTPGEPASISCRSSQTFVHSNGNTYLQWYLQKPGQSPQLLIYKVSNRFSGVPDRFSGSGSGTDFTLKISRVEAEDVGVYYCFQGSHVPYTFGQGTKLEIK	2.2
hAb006LH2L1a (antibody, human IgG1, V domains shown, Humanized F3.38.7; VH H2 + VL L1a; expressed as human IgG1) VH: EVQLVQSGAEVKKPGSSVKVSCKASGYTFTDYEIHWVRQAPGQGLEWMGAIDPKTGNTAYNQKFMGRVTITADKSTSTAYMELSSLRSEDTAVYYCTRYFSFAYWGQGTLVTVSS VL: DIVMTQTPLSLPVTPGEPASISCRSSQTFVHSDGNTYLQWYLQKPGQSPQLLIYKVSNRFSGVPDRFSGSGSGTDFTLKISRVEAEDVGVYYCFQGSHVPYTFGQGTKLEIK	1.37
hAb005LH1L1b (antibody, human IgG1, V domains shown, Humanized F3.54.12; VH H1 + VL L1b; expressed as human IgG1) VH: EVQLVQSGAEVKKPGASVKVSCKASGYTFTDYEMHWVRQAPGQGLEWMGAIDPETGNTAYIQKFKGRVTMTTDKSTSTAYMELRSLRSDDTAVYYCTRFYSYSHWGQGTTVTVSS VL: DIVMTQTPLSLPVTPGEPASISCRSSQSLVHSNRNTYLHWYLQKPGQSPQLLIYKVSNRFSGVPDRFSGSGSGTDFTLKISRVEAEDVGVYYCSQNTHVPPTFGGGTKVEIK	1.16
hAb001H1aL1b (antibody, human IgG1, V domains shown, Humanized F2.169.2; VH H1a + VL L1b; expressed as human IgG1) VH: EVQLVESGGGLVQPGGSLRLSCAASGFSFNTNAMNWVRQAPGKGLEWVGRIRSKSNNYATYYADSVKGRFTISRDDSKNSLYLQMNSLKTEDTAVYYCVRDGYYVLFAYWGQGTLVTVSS VL: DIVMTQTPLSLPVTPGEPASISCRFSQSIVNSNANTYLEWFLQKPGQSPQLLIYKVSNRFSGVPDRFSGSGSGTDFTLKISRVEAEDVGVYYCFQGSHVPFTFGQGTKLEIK	2.62
hAb003LH3L1 (antibody, human IgG1, V domains shown, Humanized F2.154.1; VH H3 + VL L1; expressed as human IgG1) VH: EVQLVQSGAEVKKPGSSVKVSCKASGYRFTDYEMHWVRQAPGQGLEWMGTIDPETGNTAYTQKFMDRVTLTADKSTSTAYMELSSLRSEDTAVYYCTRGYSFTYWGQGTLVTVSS VL: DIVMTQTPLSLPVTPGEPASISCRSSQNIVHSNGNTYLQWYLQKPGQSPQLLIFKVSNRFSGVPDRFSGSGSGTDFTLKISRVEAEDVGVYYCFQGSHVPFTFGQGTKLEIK	2.56

For every item in the list below, what is its measured OD450 at 2.67 nM?
1. hAb005LH2L1b (antibody, human IgG1, V domains shown, Humanized F3.54.12; VH H2 + VL L1b; expressed as human IgG1) VH: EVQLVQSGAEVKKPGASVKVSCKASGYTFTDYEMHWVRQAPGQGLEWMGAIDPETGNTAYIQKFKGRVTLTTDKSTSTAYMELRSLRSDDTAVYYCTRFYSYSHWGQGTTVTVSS VL: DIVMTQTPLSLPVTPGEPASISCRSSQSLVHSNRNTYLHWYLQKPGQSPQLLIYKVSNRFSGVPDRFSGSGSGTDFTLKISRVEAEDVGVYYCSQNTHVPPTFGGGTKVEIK
2. hAb006LH2L1b (antibody, human IgG1, V domains shown, Humanized F3.38.7; VH H2 + VL L1b; expressed as human IgG1) VH: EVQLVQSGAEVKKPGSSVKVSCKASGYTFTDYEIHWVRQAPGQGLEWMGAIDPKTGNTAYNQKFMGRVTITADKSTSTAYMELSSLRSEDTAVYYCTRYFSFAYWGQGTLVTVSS VL: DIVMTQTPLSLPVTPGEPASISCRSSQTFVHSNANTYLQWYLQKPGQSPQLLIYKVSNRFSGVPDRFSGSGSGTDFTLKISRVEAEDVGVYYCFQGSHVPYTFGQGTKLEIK
3. hAb005LH3L1 (antibody, human IgG1, V domains shown, Humanized F3.54.12; VH H3 + VL L1; expressed as human IgG1) VH: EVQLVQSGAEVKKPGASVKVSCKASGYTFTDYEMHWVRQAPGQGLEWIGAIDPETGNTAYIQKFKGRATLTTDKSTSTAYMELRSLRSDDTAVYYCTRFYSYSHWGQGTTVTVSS VL: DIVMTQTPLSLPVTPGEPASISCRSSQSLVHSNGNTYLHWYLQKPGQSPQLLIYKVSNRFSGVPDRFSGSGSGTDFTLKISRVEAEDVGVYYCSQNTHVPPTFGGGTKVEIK

1: 1.04; 2: 2.55; 3: 1.1

For every item in the list below, what is its measured OD450 at 2.67 nM?
1. hAb005LH1L1 (antibody, human IgG1, V domains shown, Humanized F3.54.12; VH H1 + VL L1; expressed as human IgG1) VH: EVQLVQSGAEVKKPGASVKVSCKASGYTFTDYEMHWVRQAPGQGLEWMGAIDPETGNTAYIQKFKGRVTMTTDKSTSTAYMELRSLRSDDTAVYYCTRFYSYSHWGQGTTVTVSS VL: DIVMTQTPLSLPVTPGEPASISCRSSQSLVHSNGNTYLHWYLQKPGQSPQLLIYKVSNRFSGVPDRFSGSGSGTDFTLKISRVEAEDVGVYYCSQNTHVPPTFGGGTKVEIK
2. hAb003LH3L1a (antibody, human IgG1, V domains shown, Humanized F2.154.1; VH H3 + VL L1a; expressed as human IgG1) VH: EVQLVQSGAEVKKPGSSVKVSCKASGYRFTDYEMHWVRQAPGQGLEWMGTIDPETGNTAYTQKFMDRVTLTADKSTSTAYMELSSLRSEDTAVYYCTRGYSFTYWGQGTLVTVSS VL: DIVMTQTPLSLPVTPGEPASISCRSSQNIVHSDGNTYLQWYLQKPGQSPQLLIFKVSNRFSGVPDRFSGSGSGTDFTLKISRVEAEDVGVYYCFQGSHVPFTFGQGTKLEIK

[1.17, 2.13]
